- experimental protocol: NCI Yeast Anticancer Drug Screen. Data for the sgs1 mgt1 strain (AID 161);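 note: 0% = growth of cultures given vehicle only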
- protocol conditions: S. cerevisiae sgs1 mgt1 strain, at 50.0 µM, stronger effect = higher value
The panel holds about 79,000 compounds, 15% with a hit somewhere; the sample as a whole holds those more often.
Quick reference: growth inhibition of the listed items.
Kindly answer with a numeric value in %, unit omitted.

Record excerpt, results attached:
[
  {
    "compound": "CCOC(=O)CC1(C)SCCN1C(N)=O (centres undefined)",
    "growth inhibition (%)": -5.85
  },
  {
    "compound": "Cc1nc2ccc(S(=O)(=O)Nc3ccc(Cl)cc3)cc2c(=O)n1NC(=O)CNc1ccc(Cl)cc1",
    "growth inhibition (%)": 42.2
  },
  {
    "compound": "CC(=O)O[C@]12CCCC1C1(O)C(O)CCCC12 (some centres undefined)",
    "growth inhibition (%)": -72.3
  },
  {
    "compound": "COc1ccc(C(=O)C(C)CN2CCOCC2)cc1 (centres undefined)",
    "growth inhibition (%)": 40.5
  },
  {
    "compound": "O=C1/C(=C\\c2ccccc2)C2C3CCC(C3)C2/C1=C\\c1ccccc1 (centres undefined)",
    "growth inhibition (%)": 4.6
  }
]

growth inhibition for "C=C(C)c1nc(N)nc(-c2cccc(-c3nc(N)nc(C(=C)C)n3)c2)n1" is 0.2

growth inhibition for CC1=CC[N+](C)(C)C(C(N)=O)C1 (centres undefined) is -17.2

growth inhibition for "CN(NC(=O)c1cccs1)C1=NCCN1" is -24.9

###

- experimental protocol: NCI Yeast Anticancer Drug Screen. Data for the cln2 rad14 strain (AID 165);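 note: 0% = growth equal to vehicle treated cultures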
- protocol conditions: S. cerevisiae cln2 rad14 strain, at 50.0 µM, stronger effect = higher value
Compounds without any hit were thinned out: in the full panel of roughly 79,000, 15% have a hit. Activity calls are given as the source filed them. Rule as the data show it: active = growth inhibition above about 70%; inactive = the rest.
Quick reference: growth inhibition of the listed items.

Record excerpt, results attached:
[
  {
    "compound": "CC1C=CC(C(=O)Nc2ccc(Cl)c(Cl)c2)N1C (stereo unspecified)",
    "value observed": "-33.9% (inactive)"
  },
  {
    "compound": "O=C(c1ccccc1)[n+]1ccc2ccccc2c1",
    "value observed": "0.45% (inactive)"
  },
  {
    "compound": "Cc1cccc(S(=O)(=O)c2ccccc2)c1",
    "value observed": "13.1% (inactive)"
  },
  {
    "compound": "CON(C)S(=O)(=O)c1ccc(Cl)cc1",
    "value observed": "-18.9% (inactive)"
  },
  {
    "compound": "COc1cccc(-c2cc(=O)c3cc(Cl)cnc3[nH]2)c1",
    "value observed": "31.1% (inactive)"
  }
]

growth inhibition for "Cc1cc(=O)n2c3c(cccc13)CCC2" is 7.15% (inactive)

growth inhibition for "Cc1csc2nc(-c3cccs3)nn12" is -1.55% (inactive)

growth inhibition for "C/C=C/C1OCC(C)(C)CO1" is -46.8% (inactive)

###

- experimental protocol: NCI Yeast Anticancer Drug Screen. Data for the mec2-1 strain (AID 157)
- protocol conditions: S. cerevisiae mec2-1 strain, at 50.0 µM, stronger effect = higher value
This is part of a sample that, as a whole, favours compounds with a hit. Of some 79,000 tested, about 15% had one in any assay.
Quick reference: growth inhibition of the listed items.
Kindly answer with a numeric value in %, unit omitted.

Record excerpt, results attached:
[
  {
    "molecule": "CC12OC(=O)CC1C(c1ccccc1)(c1ccccc1)O2 (configuration not stated)",
    "value units": "%",
    "value observed": -8
  },
  {
    "molecule": "Nc1nc(=O)n(CCCOc2ccc([N+](=O)[O-])c(Cl)c2)cc1-c1ccc(Cl)c(Cl)c1",
    "value units": "%",
    "value observed": -8.2
  },
  {
    "molecule": "CN(C)N1C(=O)c2ccccc2NC1c1ccccc1 (configuration not stated)",
    "value units": "%",
    "value observed": -1.35
  },
  {
    "molecule": "C=CCNC(=S)/N=C\\C(C(=O)OCC)=C(/O)C(=O)OCC",
    "value units": "%",
    "value observed": -18.4
  },
  {
    "molecule": "Cc1cccc(OC(=O)Oc2cccc(C)c2)c1",
    "value units": "%",
    "value observed": -9.25
  },
  {
    "molecule": "Nc1ccc(F)c(Cl)c1",
    "value units": "%",
    "value observed": -16.4
  },
  {
    "molecule": "COC1OC(COS(=O)(=O)c2ccc(C)cc2)C(N(C)C(C)=O)C1OS(=O)(=O)c1ccc(C)cc1 (configuration not stated)",
    "value units": "%",
    "value observed": -8.3
  },
  {
    "molecule": "Cc1csc(C)[n+]1CC(=O)c1ccccc1",
    "value units": "%",
    "value observed": -5.45
  },
  {
    "molecule": "CSc1ccc(NC(=O)Nc2ccc(Cl)cc2[N+](=O)[O-])cc1",
    "value units": "%",
    "value observed": 40.5
  },
  {
    "molecule": "CN(C)c1ccc2c(N(C)C)cc(N(C)C)[n+](C)c2c1",
    "value units": "%",
    "value observed": -23.1
  }
]

Attention now shifts to the item below.
growth inhibition for CC(=O)OC/C(=C/C#N)C1CCC2C3CCC4CC(OC(C)=O)CCC4(C)C3CCC12C (configuration not stated) is 30.7

###

- experimental protocol: NCI Yeast Anticancer Drug Screen. Data for the mec2-1 strain (AID 157)
- protocol conditions: S. cerevisiae mec2-1 strain, at 50.0 µM, stronger effect = higher value
This is part of a sample that, as a whole, favours compounds with a hit. Of some 79,000 tested, about 15% had one in any assay.
Quick reference: growth inhibition of the listed items.
Kindly answer with a numeric value in %, unit omitted.

Record excerpt, results attached:
[
  {
    "molecule": "O=C(O)CCc1c[nH]c(=S)[nH]1",
    "growth inhibition (%)": 3.75
  },
  {
    "molecule": "CCn1cc(C(=O)C(=O)N(C)C)c2ccccc21",
    "growth inhibition (%)": -7.75
  },
  {
    "molecule": "COc1cc(-c2cc(OC)c(N=N/C(=N/Nc3ccc([N+](=O)[O-])cc3)c3ccc([N+](=O)[O-])cc3)cc2Cl)c(Cl)cc1N=N/C(=N\\Nc1ccc([N+](=O)[O-])cc1)c1ccc([N+](=O)[O-])cc1",
    "growth inhibition (%)": 9.65
  },
  {
    "molecule": "Cc1cc(-n2cnc3c(N(CCO)CCO)ncnc32)ccc1[N+](=O)[O-]",
    "growth inhibition (%)": -8.5
  },
  {
    "molecule": "CC1=CCC(CC(=O)O)C1(C)C (centres undefined)",
    "growth inhibition (%)": 2.05
  }
]

growth inhibition for "O=C1N=C2SCCCN2C1(c1ccccc1)c1ccccc1" is 21.2

growth inhibition for "CCC1=CC(=O)C(CC)=CC1=O" is 25.2

growth inhibition for "O=C(CCc1cc(-c2ccc(F)cc2)n[nH]1)N(Cc1ccccc1)Cc1ccccc1" is 11.2

growth inhibition for "CN(C)Cc1cc(Cl)c(O)c(CN(C)C)c1" is -43.5

growth inhibition for "O=[N+]([O-])C(=C(N1CCOCC1)N1CCOCC1)/C(Cl)=C(\Cl)Br" is -1.1

###

Quick reference: growth inhibition of the listed items.
- experimental protocol: NCI Yeast Anticancer Drug Screen. Data for the cln2 rad14 strain (AID 165);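 note: 0% = growth equal to vehicle treated cultures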
- protocol conditions: S. cerevisiae cln2 rad14 strain, at 50.0 µM, stronger effect = higher value
The panel holds about 79,000 compounds, 15% with a hit somewhere; the sample as a whole holds those more often.
Kindly answer with a numeric value in %, unit omitted.

[
  {
    "compound": "CN/N=C(/Cc1occc(=O)c1O)C(=O)Nc1ccc(C)c(C)c1",
    "growth inhibition, %": 3.15
  },
  {
    "compound": "N#CC(C#N)=CNC(=S)Nc1ccc(S(=O)(=O)Nc2nccs2)cc1",
    "growth inhibition, %": 4.85
  },
  {
    "compound": "O=c1[nH]c(=O)n(C2CC(O)C(CO)O2)cc1C#Cc1ccc(F)cc1 (centres undefined)",
    "growth inhibition, %": -5.6
  },
  {
    "compound": "CC12CCCCC1C(C(C)(C)OC(=O)c1ccc([N+](=O)[O-])cc1)CC2 (centres undefined)",
    "growth inhibition, %": -8.85
  },
  {
    "compound": "COC1=C(O)C(=O)C(OC)=C(O)C1=O",
    "growth inhibition, %": -1.4
  }
]

growth inhibition for "CCOC(=O)c1ccccc1OCc1ccccc1" is -5.9

growth inhibition for "CN(C)N=Nc1ccc(C(=O)N/N=C/c2ccccc2[N+](=O)[O-])cc1" is -18.2

growth inhibition for CCS(=O)(=O)CC(C)O (centres undefined) is 10.1

growth inhibition for "COc1ccc2c(CC(=O)O)cc(=O)oc2c1" is 7.7

growth inhibition for "O=C(Nc1ccc(Cl)cc1)c1ccc(Cl)c(Cl)c1" is -8.6

growth inhibition for "COc1cc(CO)c(CO)cc1OC" is -10.8

growth inhibition for "S=C(S)N1CCN(c2ccc(Cl)c(Cl)c2)CC1" is 2.95

growth inhibition for CCC[CH2][Sn]1([CH2]CCC)[O]C2C(CO)OC(n3c(Br)c(C(N)=O)c4c(N)ncnc43)C2[O]1 (centres undefined) is 97.5

growth inhibition for CC1(C)C2CCC1(C)C1(C2)OC(CCl)CS1 (centres undefined) is 4.3

growth inhibition for "CNC(=S)NNC1=NCCCCN1" is 3.9

growth inhibition for "CC1(C)C(CBr)=[N+]([O-])C(C)(C)N1O" is 13.6

growth inhibition for "CN1C(C)(C)NC(=S)C1(C)C" is 11.7

growth inhibition for CCOC(=O)CNC(=O)C(CC(C)C)NC(=O)OCc1ccccc1 (centres undefined) is 5.25

growth inhibition for CO[C@H]1C=CO[C@@]2(C)Oc3c(C)c(O)c4c(O)c(c(CN5CCN(C)CC5)c(O)c4c3C2=O)NC(=O)/C(C)=C\C=C[C@H](C)[C@H](O)C(C)[C@@H](O)C(C)[C@H](OC(C)=O)[C@@H]1C (some centres undefined) is 54

growth inhibition for "CCCCCCCCCCCC(=O)NC(=S)Nc1ccc(C(=O)OCC)cc1" is 1.35

growth inhibition for "CCOC(=O)/C(=C\c1ccc[nH]1)C(=O)c1ccccc1" is 27.6

growth inhibition for Cc1ccc(S(=O)(=O)NC(=O)c2ncn(C3OC(CO)C(O)C3O)c2N)cc1 (centres undefined) is 15.1

growth inhibition for "O=Cc1ccc2ccccc2c1" is -57.5

growth inhibition for CCNc1nc2c(ncn2C2CC(O)C(COP(=O)(O)O)O2)c(=O)[nH]1 (centres undefined) is 11.8

growth inhibition for "Cc1ccc(O)c(C)n1" is 7

The reported numbers originate from PubChem BioAssay (NCI).
